- Tested on: SW-620 colon
- Protocol details: NCI tumour cell line growth inhibition, 48 h
Quantity name: TGI

What value of TGI has been recorded for this entry: CCC(=O)/C=C/c1ccccc1
> 100 µM

What value of TGI has been recorded for this entry: COc1cc(-c2ccc(-c3ccc(C(=N)N)cc3)s2)cc(OC)c1OC
3.31 µM

What value of TGI has been recorded for this entry: COc1cccc2c1N[S@](=O)S2
> 100 µM

What value of TGI has been recorded for this entry: CN(C)CCCNC(=O)c1cc2/c(=C\c3ccc(N(C)C)cc3)c3ccccc3n2[n+]1C
> 100 µM

What value of TGI has been recorded for this entry: O=c1cc(-c2ccccc2)c2ccc(O)c(CN(CCCl)CCCl)c2o1
69.7 µM

***
What value of TGI has been recorded for this entry: Cc1cc2nc(C#N)c(N3CCN(c4ccc([N+](=O)[O-])cc4)CC3)nc2cc1C
> 100 µM

What value of TGI has been recorded for this entry: COc1cc2c(cc1I)-c1c(cc(OC)c(OC)c1OC)CC[C@@H]2NC(C)=O
42.2 µM

What value of TGI has been recorded for this entry: CCOC(=O)N1C/C(=C/c2ccc(Cl)cc2)C(=O)/C(=C/c2ccc(Cl)cc2)C1
4.73 µM

What value of TGI has been recorded for this entry: COc1cc2c3c(n(CCCNCCNCCN)c(=O)c2cc1OC)-c1cc2c(cc1C3=O)OCO2
43.8 µM

* * *

- Tested on: IGROV1 ovarian
- Protocol details: NCI tumour cell line growth inhibition, 48 h
Quantity name: TGI (µM)
Give the quantity in µM, number only.

What value of TGI has been recorded for this entry: COc1ccc(CC(C)=C(c2ccc(OCCN3CCCCCC3)cc2)c2ccc(OCCN3CCCCCC3)cc2)cc1
1.02

What value of TGI has been recorded for this entry: CCN(CC)Cc1cc(Nc2c3ccc(Cl)cc3nc3ccc(OC)cc23)ccc1O
21.1

What value of TGI has been recorded for this entry: O=C(COc1nc2ccccc2nc1-c1ccccc1)Nc1ccc(Cl)cc1
49.4

What value of TGI has been recorded for this entry: CC12CP(=O)(c3ccccc3)CC1c1ccccc1C2c1ccccc1 (stereo unspecified)
46

What value of TGI has been recorded for this entry: CC(=O)Oc1c(-c2ccccc2)oc2ccccc12
6.56

What value of TGI has been recorded for this entry: O=[N+]([O-])c1cc(Cl)c(Cl)cc1[N+](=O)[O-]
3.44

What value of TGI has been recorded for this entry: c1ccc([P+](c2ccccc2)(c2ccccc2)c2ccc3c4ccc([P+](c5ccccc5)(c5ccccc5)c5ccccc5)c5cccc(c6cccc2c63)c54)cc1
7.47

What value of TGI has been recorded for this entry: O=c1cc(-c2ccccc2)c2ccc(O)c(CN(CCCl)CCCl)c2o1
33.8

Proceeding to the next molecule to report its TGI.
What value of TGI has been recorded for this entry: COc1cc(OC)c2c(c1)C(=O)C(CC1(C)OCCCO1)=CC2=O
32.2

* * *

This section presents compounds with their documented TGI values.
- Test system: SNB-75 CNS
- Protocol details: NCI tumour cell line growth inhibition, 48 h
Give the quantity in µM, number only.

What value of TGI has been recorded for this entry: O=[N+]([O-])c1ccc2c(c1)Sc1ccccc1N2
81.9

What value of TGI has been recorded for this entry: CCOC(=O)C1=C(Cl)c2cccnc2C1=O
88.3

What value of TGI has been recorded for this entry: CCCCCC(=O)N[C@H]1CCc2cc(O)c(O)c(O)c2-c2ccc(SC)c(=O)cc21
78.5

What value of TGI has been recorded for this entry: COc1cc2c3c(n(CCCNCCNCCN)c(=O)c2cc1OC)-c1cc2c(cc1C3=O)OCO2
9.47
